Listed below: fold decrease in turbidity relative to WT values for each entry.
Study Target: P07196
Assay Info: turbidity (absorbance at 395 nm); synthetic NEFL head domain 5×D library, 100 μM LCD, A395, n = 3
Test Conditions: other: turbidity (absorbance at 395 nm)

Take a look at these entries with their results.
| Protein | Measured |
| --- | --- |
| synthetic NEFL head domain 5×D_(33-41) (protein) SSFSYEPYYSTSYKRRYVETPRVHISSVRCGYSTARSAYSSYSAPVSSSLSVRRSYSSSSGSLMPSLENLELS | 20-fold |
| synthetic NEFL head domain 5×D_(22-30) (protein) SSFSYEPYYSTSYKRRYVETPRVHISSVRCGYSTARSAYSSYSAPVSSSLSVRRSYSSSSGSLMPSLENLELS | 9.1-fold |
| synthetic NEFL head domain 5×D_(63-71) (protein) SSFSYEPYYSTSYKRRYVETPRVHISSVRCGYSTARSAYSSYSAPVSSSLSVRRSYSSSSGSLMPSLENLELS | 1 fold |

Problem: Provide fold decrease in turbidity relative to WT value for the following protein: synthetic NEFL head domain 5×D_(43-51) (protein) SSFSYEPYYSTSYKRRYVETPRVHISSVRCGYSTARSAYSSYSAPVSSSLSVRRSYSSSSGSLMPSLENLELS
Result: 2.7-fold

Problem: Provide fold decrease in turbidity relative to WT value for the following protein: synthetic NEFL head domain 5×D_(53-63) (protein) SSFSYEPYYSTSYKRRYVETPRVHISSVRCGYSTARSAYSSYSAPVSSSLSVRRSYSSSSGSLMPSLENLELS
Result: 1.6-fold
